experiment: Compound was evaluated for its activity against PTP1B (a tyrosine phosphatase)
Rule for this label: rule met means Activity is less than 70 µM; rule not met means Activity is at least 70 µM.

O=C(NC(Cc1ccc(O)cc1)C(=O)N(CCc1c[nH]c2ccccc12)C(C(=O)NCCN1CCOCC1)c1ccc(OCP(=O)(O)O)cc1)OCC1c2ccccc2-c2ccccc21 (centres undefined) = rule met
O=C(O)C(Oc1ccc(C(=O)N(Cc2ccc3c(c2)OCO3)C(C(=O)NC2CCCCC2)c2ccc(OC(C(=O)O)C(=O)O)cc2)cc1)C(=O)O (centres undefined) = rule not met

I wonder whether CC(C)=CCCC(C)C(C(=O)NC1CCCCC1)N(Cc1ccc2c(c1)OCO2)C(=O)c1ccc(CP(=O)(O)O)cc1 (centres undefined) has Activity below 70 µM. Can you tell?
rule not met

Hello, is Activity of the following compound strictly smaller than 70 µM? O=C(O)C(Oc1ccc(C(=O)N(Cc2ccc3c(c2)OCO3)C(C(=O)NC2CCCCC2)c2ccc(OCP(=O)(O)O)cc2)cc1)C(=O)O (centres undefined)
rule not met

Regarding O=C(O)C(Oc1ccc(C(C(=O)NC2CCCCC2)N(Cc2ccc3c(c2)OCO3)C(=O)c2ccc(CP(=O)(O)O)cc2)cc1)C(=O)O (centres undefined) , kindly confirm whether its Activity is beneath 70 µM.
rule not met

Determine whether this compound shows Activity lower than 70 µM (ties excluded): Cc1ccc(S(=O)(=O)CNC(=O)C(c2ccc(OCP(=O)(O)O)cc2)N(CCc2c[nH]c3ccccc23)C(=O)c2cc(Br)cc(Br)c2O)cc1 (centres undefined)
rule not met
